FYI, the data here is from patent US20260207602A1.

- System Tested: EGFR L858R (Homo sapiens, UniProt P00533, L858R)
- Construct: purchased SignalChem E10-122BG
- Sequence (P00533 25-1210 L858R): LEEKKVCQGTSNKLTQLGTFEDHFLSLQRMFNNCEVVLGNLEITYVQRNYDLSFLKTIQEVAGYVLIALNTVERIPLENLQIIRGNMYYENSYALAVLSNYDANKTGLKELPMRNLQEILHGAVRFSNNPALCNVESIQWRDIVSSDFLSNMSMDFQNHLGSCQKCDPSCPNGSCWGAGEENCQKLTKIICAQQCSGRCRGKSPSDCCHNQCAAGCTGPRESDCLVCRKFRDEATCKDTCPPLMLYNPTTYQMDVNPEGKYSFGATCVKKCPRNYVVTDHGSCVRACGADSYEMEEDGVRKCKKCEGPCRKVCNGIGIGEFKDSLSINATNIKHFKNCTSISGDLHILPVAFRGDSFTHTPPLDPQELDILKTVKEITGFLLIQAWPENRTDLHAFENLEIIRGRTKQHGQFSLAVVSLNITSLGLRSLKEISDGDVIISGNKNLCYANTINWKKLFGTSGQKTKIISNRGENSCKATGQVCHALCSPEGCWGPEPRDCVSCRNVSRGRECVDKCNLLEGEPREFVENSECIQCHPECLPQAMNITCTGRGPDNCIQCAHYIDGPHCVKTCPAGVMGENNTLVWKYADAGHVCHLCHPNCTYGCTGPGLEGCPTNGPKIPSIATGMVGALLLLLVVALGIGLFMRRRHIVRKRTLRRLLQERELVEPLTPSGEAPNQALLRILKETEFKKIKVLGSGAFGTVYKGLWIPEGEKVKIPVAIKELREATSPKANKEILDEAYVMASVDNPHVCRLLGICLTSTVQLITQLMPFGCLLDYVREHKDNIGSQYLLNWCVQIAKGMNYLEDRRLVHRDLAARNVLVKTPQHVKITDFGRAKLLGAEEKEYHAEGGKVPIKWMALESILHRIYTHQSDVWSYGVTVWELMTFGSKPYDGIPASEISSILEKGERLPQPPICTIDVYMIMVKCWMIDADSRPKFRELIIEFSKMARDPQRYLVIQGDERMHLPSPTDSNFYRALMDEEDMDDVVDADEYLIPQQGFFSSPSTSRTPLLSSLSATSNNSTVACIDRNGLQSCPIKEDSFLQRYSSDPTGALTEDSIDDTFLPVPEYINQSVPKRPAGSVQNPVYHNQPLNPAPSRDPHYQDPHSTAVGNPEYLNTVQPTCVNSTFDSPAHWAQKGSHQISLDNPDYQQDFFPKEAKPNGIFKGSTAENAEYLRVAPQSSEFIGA
- Protocol Text: Biochemical EGFR inhibition assay (Caliper mobility shift), EGFR L858R
- Cond: biochemical Caliper mobility shift assay, EGFR L858R enzyme; read-out: Enz EGFR L858R IC50
Measured IC50, listed per entry for reference.

INSERT INTO measurements (molecule, result) VALUES
  ('C[C@@H](Oc1cc(N2CCN(C)CC2)cc2ncnc(Nc3ccc4ncsc4c3)c12)C1COC1 (single isomer, unassigned) [Example 97]', '10.1 to 50 nM');

Problem: Any idea what IC50 was measured for CN1CC[C@H](Oc2cc(-c3cnn(C)c3)cc3ncnc(Nc4ccc5ncsc5c4F)c23)C1=O (single isomer, unassigned) [Example 72] ?
Solution: ≤ 10 nM

Problem: Now consider "Cn1cc(-c2cc(OCC3(C)COC3)c3c(Nc4ccc5ncsc5c4)ncnc3c2)cn1" .
Solution: ≤ 10 nM

Problem: Now consider C[C@H](CO)Oc1cc(-c2cnn(C)c2)cc2ncnc(Nc3ccc4ncsc4c3F)c12 (single isomer, unassigned) [Example 290] .
Solution: ≤ 10 nM

Problem: Now consider COc1nn(C)cc1-c1cc(O[C@H]2CN(C)C[C@@H]2F)c2c(Nc3ccc4ncsc4c3)ncnc2c1 (single isomer, unassigned) [Example 377] .
Solution: 10.1 to 50 nM

Problem: Now consider CC(C)N1CC[C@@H](Oc2cc(-c3cnn(C)c3)cc3ncnc(Nc4ccc5ncsc5c4)c23)C1=O (single isomer, unassigned) [Example 63] .
Solution: ≤ 10 nM

Problem: Now consider "COC[C@@H](C)Oc1cc(-c2cnn(C)c2)cc2ncnc(Nc3ccc4ncsc4c3F)c12" .
Solution: ≤ 10 nM

Problem: Now consider "Cn1ccc(-c2cc3ncnc(Nc4ccc5ncsc5c4)c3cc2NC(=O)CCN2CCCCC2)n1" .
Solution: ≤ 10 nM

Problem: Now consider CC[C@H](Oc1cc(-c2cnn(C)c2)cc2ncnc(Nc3ccc4ncsc4c3F)c12)C1CN(C)C1 (single isomer, unassigned) [Example 389] .
Solution: 10.1 to 50 nM
